# procedure.text: qHTS profiling of the MIPE4 collection as inhibitors of Plasmodium falciparum (3D7) proliferation (AID 743344);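 further: scaled between DMSO vehicle wells and 0.29 µM artemisinin as full inhibition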
# condition.parameters: P. falciparum 3D7 in erythrocytes, SYBR Green DNA fluorescence, 72 h; at 28.5 µM
Each entry below carries its recorded parasite growth, % of DMSO control.
Please respond with the number in % and leave the unit unwritten.

C[C@@H]1C[C@@H]([C@H](O)CC2CC(=O)NC(=O)C2)C(=O)[C@@H](C)C1
5.16
COc1ccc(C(=O)N2CCCC2=O)cc1
90.2
Cc1cc(C(C)(C)C)cc(C)c1CC1=NCCN1
58.8

Item under review: CCCS(=O)c1ccc2nc(NC(=O)OC)[nH]c2c1 (stereo unspecified) . Reported parasite growth, % of DMSO control?
81.1

Could you share which parasite growth, % of DMSO control value was measured for CCOC(=O)Nc1ccc(NCc2ccc(F)cc2)nc1N ?
40.6

Quick check: parasite growth, % of DMSO control of O=C(O)c1nn(Cc2ccc(Cl)cc2Cl)c2ccccc12 ?
75.4
